Data credit: ChEMBL document CHEMBL4402540

Measured pIC50 values are reported for all entries that follow.
# TEST_METHOD_NOTES: Inhibition of AgrC-2 in Staphylococcus aureus RN9372 incubated for 1 hr in presence of AIP agonist by beta-lactamase reporter gene assay
Where a SMILES comes first, the peptide text is derived from it. Bridges are numbered along the chain shown (N, C = ends). [ ]: non-standard residue; d: D form. NMeF = CN[C@@H](Cc1ccccc1)C(=O)O; NMeS = CN[C@@H](CO)C(=O)O; Dap = NC[C@H](N)C(=O)O; Ava = NCCCCC(=O)O
Recall that pIC50 is obtained by taking minus log10 of the concentration measured in molar.

Previously resolved entries follow.
COMPOUND	READOUT_NUMBER
CC(=O)N[C@H]1CSC(=O)[C@H](Cc2ccccc2)NC(=O)[C@H](CC(C)C)NC(=O)[C@H](CO)NC(=O)[C@H](CO)N(C)C1=O (Ac-C[NMeS]SLF; thioester 1-C)	5.10
CC(=O)N[C@H]1CSC(=O)[C@H](Cc2ccccc2)N(C)C(=O)[C@H](CC(C)C)NC(=O)CCCCNC1=O (Ac-C[Ava]L[NMeF]; thioester 1-C)	4.29
CC(=O)N[C@H]1CNC(=O)[C@H](Cc2ccccc2)N(C)C(=O)[C@H](CC(C)C)NC(=O)[C@H](CO)NC(=O)[C@H](CO)NC1=O (Ac-[Dap]SSL[NMeF]; lactam 1-C)	3.78

# next compound below
Lookup: Sample CC(=O)N[C@H]1CSC(=O)[C@H](Cc2ccccc2)NC(=O)[C@H](CC(C)C)NC(=O)[C@H](CO)N(C)C(=O)[C@H](CO)NC1=O (Ac-CS[NMeS]LF; thioester 1-C) — what was its pIC50?
Found: 5.98

###

# TEST_METHOD_NOTES: Drug degradation in ammonium carbonate solution 0.3 mg after 72 hrs after RP-HPLC analysis
# Assay type: physicochemical
# TEST_SETTINGS: read-out: Drug degradation
Where a SMILES comes first, the peptide text is derived from it. Bridges are numbered along the chain shown (N, C = ends). [ ]: non-standard residue; d: D form. Dap = NC[C@H](N)C(=O)O
VALUE_KIND: degraded at 72 h (%)
// units = %; emit number, no label

Lookup: Sample CC[C@H](C)[C@H](N)C(=O)N[C@@H](CC(N)=O)C(=O)N[C@H]1CNC(=O)[C@H](CC(C)C)NC(=O)[C@H](CC(C)C)NC(=O)[C@H](Cc2ccccc2)NC(=O)[C@H](C)NC1=O (H-IN[Dap]AFLL; lactam 3-C) — what was its degraded at 72 h?
Found: 40

###

# TEST_METHOD_NOTES: Inhibition of AgrC-2 in Staphylococcus aureus AH430 incubated for 24 hrs by fluorescence assay
Where a SMILES comes first, the peptide text is derived from it. Bridges are numbered along the chain shown (N, C = ends).
VALUE_KIND: pIC50
Recall that pIC50 is obtained by taking minus log10 of the concentration measured in molar.

MOLECULE	pIC50
CC(=O)N[C@H]1CNC(=O)[C@H](Cc2ccccc2)NC(=O)[C@H](Cc2ccccc2)NC(=O)CCCCCCCCNC1=O	5.87
CC(=O)N[C@H]1CSC(=O)[C@H](Cc2ccccc2)NC(=O)[C@H](CC(C)C)NC(=O)[C@H](CO)NC(=O)[C@H](CO)NC1=O (Ac-CSSLF; thioester 1-C)	7.01

# next molecule below
Lookup: Sample O=C1COCCOCCNC(=O)[C@H](NC(=O)Cc2ccccc2)CSC(=O)[C@H](Cc2cccc(F)c2)NC(=O)[C@H](CC2CCCC2)N1 — what was its pIC50?
Found: 7.75

###

# TEST_METHOD_NOTES: Inhibition of AgrC-1 in Staphylococcus aureus
VALUE_KIND: IC50 (nM)
// units = nM; emit number, no label

STRUCTURE_SMILES_STRING	IC50 (nM)
CC[C@H](C)[C@H]1NC(=O)[C@@H](Cc2ccccc2)NC(=O)[C@@H](C)NC(=O)[C@H](NC(C)=O)CSC(=O)[C@@H](CCSC)NC1=O	5
CC[C@@H](C)[C@H](NC(C)=O)C(=O)N[C@H](CC(N)=O)C(=O)N[C@@H]1CSC(=O)[C@@H](Cc2ccccc2)NC(=O)[C@@H](CC(C)C)NC(=O)[C@@H](CC(C)C)NC(=O)[C@@H](C)NC1=O	0.5

Lookup: Sample CC[C@@H](C)[C@H](N)C(=O)N[C@H](CC(N)=O)C(=O)N(C)[C@@H]1CSC(=O)[C@@H](CC(C)C)N(C)C(=O)[C@@H](CC(C)C)NC(=O)[C@@H](Cc2ccccc2)NC(=O)[C@@H](CC(=O)O)NC1=O — what was its IC50?
Found: 137

Lookup: Sample CC[C@@H](C)[C@H](N)C(=O)N[C@H](CC(N)=O)C(=O)N(C)[C@@H]1CSC(=O)[C@@H](CC(C)C)N(C)C(=O)[C@@H](CC(C)C)NC(=O)CN(Cc2ccccc2)C(=O)[C@@H](CC(=O)O)NC1=O — what was its IC50?
Found: 4.49

###

Measured pIC50 values are reported for all entries that follow.
# TEST_METHOD_NOTES: Inhibition of AgrC-2 in Staphylococcus aureus RN9372 incubated for 60 to 90 mins in presence of AIP agonist by beta-lactamase reporter gene assay
Where a SMILES comes first, the peptide text is derived from it. Bridges are numbered along the chain shown (N, C = ends). The star is where a group is joined. 6FAM = O=C1OC2(c3ccc(O)cc3Oc3cc(O)ccc32)c2cc(C(=O)*)ccc21; Biotin = O=C1N[C@H]2[C@H](CS[C@H]2CCCCC(=O)*)N1
Recall that pIC50 is obtained by taking minus log10 of the concentration measured in molar.

Previously resolved entries follow.
MOLECULE	READOUT_NUMBER
CC[C@H](C)[C@H](NC(=O)c1ccc2c(c1)C1(OC2=O)c2ccc(O)cc2Oc2cc(O)ccc21)C(=O)N[C@@H](CC(N)=O)C(=O)N[C@H]1CSC(=O)[C@H](CC(C)C)NC(=O)[C@H](CC(C)C)NC(=O)[C@H](Cc2ccccc2)NC(=O)[C@H](C)NC1=O (6FAM-INCAFLL; thioester 3-C)	7.66
CC[C@H](C)[C@@H]1NC(=O)[C@H](Cc2ccccc2)NC(=O)[C@H](CC(=O)O)NC(=O)[C@@H](NC(=O)[C@@H](NC(=O)[C@H](CO)NC(=O)[C@H](Cc2ccc(O)cc2)NC(=O)CCCC[C@@H]2SC[C@@H]3NC(=O)N[C@@H]32)[C@@H](C)O)CSC(=O)[C@H](CCSC)NC1=O (Biotin-YSTCDFIM; thioester 4-C)	7.40
CC[C@H](C)[C@@H]1NC(=O)[C@H](Cc2ccccc2)NC(=O)[C@H](CC(=O)O)NC(=O)[C@@H](NC(=O)[C@@H](NC(=O)[C@H](CO)NC(=O)[C@@H](N)Cc2ccc(O)cc2)[C@@H](C)O)CSC(=O)[C@H](CCSC)NC1=O (H-YSTCDFIM; thioester 4-C)	7.60

Lookup: Sample CC[C@H](C)[C@H](N)C(=O)N[C@@H](CC(N)=O)C(=O)N[C@H]1CSC(=O)[C@H](CC(C)C)NC(=O)[C@H](CC(C)C)NC(=O)[C@H](Cc2ccccc2)NC(=O)[C@H](CC(=O)O)NC1=O (H-INCDFLL; thioester 3-C) — what was its pIC50?
Found: 8.22

Lookup: Sample CC[C@H](C)[C@@H]1NC(=O)[C@H](Cc2ccccc2)NC(=O)[C@H](Cc2ccc(O)cc2)NC(=O)[C@@H](NC(=O)[C@@H](NC(=O)[C@H](CO)NC(=O)[C@@H](N)Cc2ccc(O)cc2)[C@@H](C)O)CSC(=O)[C@H](CCSC)NC1=O (H-YSTCYFIM; thioester 4-C) — what was its pIC50?
Found: 8.40

###

# TEST_METHOD_NOTES: Inhibition of AgrC-1 Staphylococcus epidermidis AH3408 incubated for 24 hrs by fluorescence assay
Where a SMILES comes first, the peptide text is derived from it. Bridges are numbered along the chain shown (N, C = ends).
VALUE_KIND: IC50 (nM)
// units = nM; emit number, no label

Previously resolved entries follow.
COMPOUND	READOUT_NUMBER
CC(C)C[C@@H]1NC(=O)[C@H](Cc2ccc(O)cc2)NC(=O)[C@H](CC(N)=O)NC(=O)[C@H](CO)NC(=O)[C@@H](NC(=O)[C@@H]2CCCN2C(=O)[C@H](CC(N)=O)NC(=O)[C@H](Cc2ccc(O)cc2)NC(=O)[C@H](CCCCN)NC(=O)[C@H](CO)NC(=O)[C@H](C)NC(=O)[C@@H](N)CC(N)=O)CSC1=O (H-NASKYNPCSNYL; thioester 8-C)	9.64
C[C@H](N)C(=O)N[C@@H](CO)C(=O)N[C@@H](C)C(=O)N[C@H]1CSC(=O)[C@H](Cc2ccccc2)NC(=O)[C@H](Cc2ccc(O)cc2)NC(=O)[C@H](C)NC(=O)[C@H](CO)NC1=O (H-ASACSAYF; thioester 4-C)	2.08
C[C@H](N)C(=O)N[C@@H](CO)C(=O)N[C@@H](C)C(=O)N[C@H]1CSC(=O)[C@H](Cc2ccccc2)NC(=O)[C@H](Cc2ccc(O)cc2)NC(=O)[C@H](C)NC(=O)[C@H](C)NC1=O (H-ASACAAYF; thioester 4-C)	2.84

# next compound below
Lookup: Sample CC(C)C[C@@H]1NC(=O)[C@H](Cc2ccc(O)cc2)NC(=O)[C@H](CO)NC(=O)[C@H](C)NC(=O)[C@@H](NC(=O)[C@@H]2CCCN2C(=O)[C@H](CC(N)=O)NC(=O)[C@H](Cc2ccc(O)cc2)NC(=O)[C@H](CCCCN)NC(=O)[C@H](C)NC(=O)[C@H](C)NC(=O)[C@@H](N)CC(N)=O)CSC1=O (H-NAAKYNPCASYL; thioester 8-C) — what was its IC50?
Found: 34.3
